- tested_target: T1, HOOK3(2–552)::Strep-tag II (human, UniProt Q86VS8 2-552)
- T1 construct: human Hook homolog 3 (HOOK3), residues 2-552; used for the GST pull-downs; also called Hook homolog 3; source: E. coli Rosetta, purified (Ni-NTA, TEV cleavage, Strep-Tactin; dialysis or SEC); not shown: 6xHis::MBP, N-terminal, cleaved; Strep-tag II (after linker GSGSGR), C-terminal, kept
- T1 sequence (looked up): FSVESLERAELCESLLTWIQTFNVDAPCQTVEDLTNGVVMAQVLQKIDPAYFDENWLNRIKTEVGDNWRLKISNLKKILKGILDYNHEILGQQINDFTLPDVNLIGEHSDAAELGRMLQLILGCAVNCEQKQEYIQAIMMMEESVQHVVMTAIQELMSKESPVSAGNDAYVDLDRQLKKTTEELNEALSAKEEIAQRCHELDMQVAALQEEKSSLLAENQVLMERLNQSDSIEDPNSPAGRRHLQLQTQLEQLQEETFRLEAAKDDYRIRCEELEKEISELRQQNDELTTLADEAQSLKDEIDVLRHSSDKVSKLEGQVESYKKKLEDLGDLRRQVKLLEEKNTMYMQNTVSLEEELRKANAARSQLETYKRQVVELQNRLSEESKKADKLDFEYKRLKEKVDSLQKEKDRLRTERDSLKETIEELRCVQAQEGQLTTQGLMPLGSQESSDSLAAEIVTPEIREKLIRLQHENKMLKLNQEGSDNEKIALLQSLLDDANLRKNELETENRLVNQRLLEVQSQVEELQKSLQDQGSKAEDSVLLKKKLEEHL
- assay_details: pull-down; GST::LIC::6xHis (50 pmol) with 50 or 250 pmol adaptor and glutathione agarose, 1 h at 4°C, 150 μL of 50 mM HEPES, 100 mM NaCl, 5 mM DTT, pH 7.5, 0.1% Tween 20; Coomassie staining and immunoblot against Strep-tag II
- assay_conditions: both partners purified
assay_readout: binding result

1. WSEGVLANFFNSLLSKKTGSPGGPGVSGGSPAG (domain or fragment, human, single N-terminal tryptophan added in the construct; human dynein light intermediate chain 1 (DYNC1LI1), residues 440-471; source: E. coli BL21, purified (glutathione agarose, Ni-NTA; dialysis or SEC); not shown: GST, N-terminal, kept; 6xHis (after linker GSGSG), C-terminal, kept) [GST::LIC1(440–471)::6xHis]	binds
2. GST::LIC2(375–492)::6xHis (domain or fragment, human, single N-terminal tryptophan added in the construct; also called LIC2-C; source: E. coli BL21, purified (glutathione agarose, Ni-NTA; dialysis or SEC); not shown: GST, N-terminal, kept; 6xHis (after linker GSGSG), C-terminal, kept) WATPTRASESPARGPSGSPRTQGRGGPASVPSSSPGTSVKKPDPNIKNNAASEGVLASFFNSLLSKKTGSPGSPGAGGVQSTAKKSGQKTVLSNVQEELDRMTRKPDSMVTNSSTENEA	binds
3. GST::LIC1(414–471)::6xHis (domain or fragment, human, single N-terminal tryptophan added in the construct; human dynein light intermediate chain 1 (DYNC1LI1), residues 414-471; source: E. coli BL21, purified (glutathione agarose, Ni-NTA; dialysis or SEC); not shown: GST, N-terminal, kept; 6xHis (after linker GSGSG), C-terminal, kept) WSSNVASVSPIPAGSKKIDPNMKAGATSEGVLANFFNSLLSKKTGSPGGPGVSGGSPAG	binds
